method summary: Metabolic stability in human liver microsomes assessed as compound remaining at 1 uM after 15 mins
Assay type: ADME
test context: read-out: Stability
One threshold, 80%, splits the recorded remaining at 0.25 h, 1 µM values: lower ones are YES, equal or higher ones are NO.

# check: remaining at 0.25 h, 1 µM < 80% for CC(C)N1CCN(C(=O)c2ccc(CN3CCC(F)CC3)cc2)CC1 NO

Regarding Cl.O=C(c1ccc(CN2CCOCC2)cc1)N1CCN(C2CC2)CC1 , kindly confirm whether its remaining at 0.25 h, 1 µM is beneath 80%. NO

remaining at 0.25 h, 1 µM under 80%? Item: CC(C)N1CCN(C(=O)c2ccc(CN3CCOCC3)cc2)CC1.O=C(O)/C=C\C(=O)O YES

Is remaining at 0.25 h, 1 µM of O=C(c1ccc(CN2CCC(F)CC2)cc1)N1CCN(C2CC2)CC1 strictly below 80%? NO

Is remaining at 0.25 h, 1 µM strictly under 80% for the entry O=C(c1ccc(CN2CCOCC2)cc1)N1CCN(C2CCC2)CC1 ? NO

---

method summary: Half life in human
Type: ADME, organism-based
test context: in vivo
measurement name: half-life
Answer format reminder: number followed by unit.

Could you tell me which half-life is on file for Cl.O=C(c1ccc(CN2CCOCC2)cc1)N1CCN(C2CC2)CC1 ? 13.9 h

---

pIC50: −log10 of the molar value.
measurement name: pIC50

Form entry - test system: Cytochrome P450 3A4 (Homo sapiens, UniProt P08684); read-out: pIC50; compound: CC(C)N1CCN(C(=O)c2ccc(CN3CCOCC3)cc2)CC1.O=C(O)/C=C\C(=O)O < 4.40

---

experimental target: Voltage-gated inwardly rectifying potassium channel KCNH2 (Homo sapiens)
Sequence (Q12809 whole entry): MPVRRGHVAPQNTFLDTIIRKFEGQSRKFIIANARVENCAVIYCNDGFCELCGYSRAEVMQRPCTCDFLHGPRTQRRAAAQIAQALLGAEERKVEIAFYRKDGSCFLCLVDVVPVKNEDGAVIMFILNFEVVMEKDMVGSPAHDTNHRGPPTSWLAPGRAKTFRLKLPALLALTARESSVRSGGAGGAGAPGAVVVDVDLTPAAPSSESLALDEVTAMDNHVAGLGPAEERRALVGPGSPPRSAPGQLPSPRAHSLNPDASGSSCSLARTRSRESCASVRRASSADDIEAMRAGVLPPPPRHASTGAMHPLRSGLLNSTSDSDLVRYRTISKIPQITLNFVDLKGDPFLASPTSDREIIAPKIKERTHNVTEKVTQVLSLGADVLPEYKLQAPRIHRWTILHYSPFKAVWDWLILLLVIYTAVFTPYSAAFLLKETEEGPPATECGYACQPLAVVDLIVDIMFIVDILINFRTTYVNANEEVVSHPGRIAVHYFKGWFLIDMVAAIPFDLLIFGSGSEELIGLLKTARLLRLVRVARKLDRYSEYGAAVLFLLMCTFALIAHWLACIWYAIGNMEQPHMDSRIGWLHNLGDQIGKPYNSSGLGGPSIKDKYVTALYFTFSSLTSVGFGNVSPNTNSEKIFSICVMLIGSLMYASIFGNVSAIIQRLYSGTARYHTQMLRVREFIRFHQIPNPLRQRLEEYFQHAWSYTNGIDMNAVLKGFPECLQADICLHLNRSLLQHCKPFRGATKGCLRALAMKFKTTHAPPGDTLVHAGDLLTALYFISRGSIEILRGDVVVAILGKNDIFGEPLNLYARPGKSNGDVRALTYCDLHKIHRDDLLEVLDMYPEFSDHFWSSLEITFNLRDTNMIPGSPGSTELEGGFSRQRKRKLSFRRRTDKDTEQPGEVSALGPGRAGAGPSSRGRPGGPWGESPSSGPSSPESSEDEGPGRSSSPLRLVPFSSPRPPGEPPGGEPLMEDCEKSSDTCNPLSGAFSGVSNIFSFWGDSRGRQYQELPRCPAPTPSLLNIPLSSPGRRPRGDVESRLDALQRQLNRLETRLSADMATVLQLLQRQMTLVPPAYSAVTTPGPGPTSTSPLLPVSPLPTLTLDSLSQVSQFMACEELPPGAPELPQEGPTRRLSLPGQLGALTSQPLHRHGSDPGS
method summary: Displacement of [3H]-astemizole from human ERG expressed in HEK293 cells after 60 mins by scintillation counting analysis
measurement name: IC50

Query: IC50; subject: CC(C)N1CCN(C(=O)c2ccc(CN3CCOCC3)cc2)CC1.O=C(O)/C=C\C(=O)O > 10 µM

Name the reported IC50 value associated with the molecule O=C(c1ccc(CN2CCC(F)CC2)cc1)N1CCN(C2CCC2)CC1 > 10 µM

Can you look up the measured IC50 of CC(C)N1CCN(C(=O)c2ccc(CN3CCCCC3)cc2)CC1 for me? > 30 µM

Requested field: IC50. Item: Cl.O=C(c1ccc(CN2CCOCC2)cc1)N1CCN(C2CC2)CC1 > 10 µM

Requested field: IC50. Item: O=C(c1ccc(CN2CCC(F)CC2)cc1)N1CCN(C2CC2)CC1 > 10 µM

Please give the measured IC50 for this molecule: O=C(c1ccc(CN2CCOCC2)cc1)N1CCN(C2CCC2)CC1 > 10 µM

---

experimental target: Voltage-gated L-type calcium channel (Rattus norvegicus, UniProt P22002+Q02485+P27732)
method summary: Binding affinity to rat L-type calcium channel at 1 uM
measurement name: Activity

CC(C)N1CCN(C(=O)c2ccc(CN3CCCCC3)cc2)CC1 = Not Active
O=C(c1ccc(CN2CCOCC2)cc1)N1CCN(C2CCC2)CC1 = Not Active
CC(C)N1CCN(C(=O)c2ccc(CN3CCOCC3)cc2)CC1.O=C(O)/C=C\C(=O)O = Not Active
Cl.O=C(c1ccc(CN2CCOCC2)cc1)N1CCN(C2CC2)CC1 = Not Active
